Target: Diaphorase
Assay: peptide array, 10 uM diaphorase, binding without FAD / with FAD
Measured noFAD/FAD, listed per entry for reference.
Reply briefly: the number, and no unit.

query: What does the record list as noFAD/FAD for RYYPAFSGGSG ?
result: 1

New cases:
query: What does the record list as noFAD/FAD for VERASYNLDGSG ?
result: 0.86

query: What does the record list as noFAD/FAD for LAKQNRVEDGSG ?
result: 0.797
